Origin of the recorded values: PubChem BioAssay (NCI)

Entries and their measured TGI follow.
- System: HOP-92 NSCLC
- assay procedure: NCI tumour cell line growth inhibition, 48 h

Study these solved cases before continuing.
>  <molecular string>
O=C1c2ccccc2NC(=S)[C@@H]2CCCN12

>  <TGI>
> 100 µM

$$$$
>  <molecular string>
O=c1cc(N2CCCC2)[nH]c(=O)n1-c1ccccc1

>  <TGI>
> 100 µM

$$$$
>  <molecular string>
COC(=O)C1=Nc2c(C)nn(-c3ccccc3)c2N=C(c2ccccc2)C1

>  <TGI>
> 10 µM

$$$$

TGI in this record for O=C(N/N=C/c1ccccc1O)c1ccccc1 : > 100 µM

Input NC(=S)NN/C=C(\C=Nc1ccccc1)[N+](=O)[O-] . Output TGI: > 100 µM

----------
- Test system: MOLT-4 leukemia
- assay procedure: NCI tumour cell line growth inhibition, 48 h
Listed next: entries and their corresponding TGI.

>  <molecule>
COc1ccc(/C(=N\NC(=S)NN)C(c2ccc(OC)cc2)C2C(=O)Oc3ccccc32)cc1 (stereo not given)

>  <reported measurement>
> 100 µM

$$$$
>  <molecule>
O=c1[nH]c(=O)n(C2CC(O)C(CO)O2)cc1OCc1ccccc1 (stereo not given)

>  <reported measurement>
> 100 µM

$$$$
>  <molecule>
CC1(C)[C@H]2CC[C@@]13C(=O)N1C(=O)O[C@@H]([C@H]1Cl)C(Cl)(COCc1ccccc1)C(=O)OCCO[C@H]3C2 (stereo not given in full)

>  <reported measurement>
76.9 µM

$$$$
>  <molecule>
S=c1cc(-c2ccc3c(c2)OCO3)s[nH]1

>  <reported measurement>
> 100 µM

$$$$
>  <molecule>
CC(=O)OC(Cn1cncn1)(Cn1cncn1)c1ccc(Cl)cc1Cl

>  <reported measurement>
> 100 µM

$$$$

Reported TGI (MOLT-4 leukemia) for entry CNC(=O)c1nn(C)c2c1C(C)(C)Cc1cnc(Nc3ccc(N4CCN(C)CC4)cc3)nc1-2 is > 5.29 µM

Let me check: COc1cc(NC(C)=O)ccc1C(=O)NN1C(=O)/C(=C/c2ccco2)N=C1c1ccccc1 , system MOLT-4 leukemia, measured TGI is 45.6 µM

Form field TGI for item O=c1cc(-c2ccccc2)oc2c(-c3cc(Cl)cc4c(=O)cc(-c5ccccc5)oc34)cc(Cl)cc12 on MOLT-4 leukemia: 52.1 µM

For the molecule O=C(O)[C@H](c1ccccc1)[C@@H](C(=O)O)c1ccccc1 , the measured TGI on MOLT-4 leukemia was > 100 µM

Record N#Cc1nc(C2CCC2)oc1N ; system MOLT-4 leukemia; TGI = > 100 µM

Observed TGI, MOLT-4 leukemia, O=C(N/N=C/c1cccc(F)c1)c1ccncc1 : > 100 µM

The molecule COc1ccc(C(=O)NCCN(C)C)c2nc3ccccc3nc12 , when measured on MOLT-4 leukemia, yielded TGI of 7.3 µM

# Cc1c2c(OCC3CCCCO3)nn(C)c(=O)c2c(C)n1-c1ccccc1 (stereo not given) with MOLT-4 leukemia: TGI is > 100 µM

# lookup: COc1ccc(C2c3cc4c(cc3OC(N3CCOCC3)C2C)OCO4)c(OC)c1OC (stereo not given) on MOLT-4 leukemia, TGI = 34 µM

Test item CN(C)CCNC(=O)Cn1ccc(=O)c2c([N+](=O)[O-])cccc21 ; MOLT-4 leukemia; reported TGI was > 100 µM

Reported MOLT-4 leukemia TGI for item Cc1c2ccccc2cc2ccc3oc([N+](=O)[O-])cc3c12 was > 100 µM

Measured TGI (MOLT-4 leukemia), entry CC12CCCC3(CC(=O)C(C)(C)C3C(=O)C1)C2 (stereo not given) : > 100 µM

Value (TGI, MOLT-4 leukemia) for record CC(=O)c1ccc(O)c(CN(C2CCCCC2)C2CCCCC2)c1O = > 100 µM

Reported MOLT-4 leukemia TGI for item COc1cc2c(cc1OC)C(C(=O)c1cccc(OC)c1OC)C(=O)N(C)CC2 (stereo not given) was > 100 µM

Entry CC(=O)N1CCC2(c3ccccc3N(C(C)=O)C2c2ccc(O)cc2)C1C(=O)O (stereo not given) under MOLT-4 leukemia had TGI of > 100 µM

----------
- Test system: EKVX NSCLC
- assay procedure: NCI tumour cell line growth inhibition, 48 h
endpoint label: TGI

>  <compound>
COc1ccc(CN2C3CC2CN(c2ccc(-c4cc(OCC(C)(C)O)cn5ncc(C#N)c45)cn2)C3)cn1

>  <experimental target>
EKVX NSCLC

>  <TGI>
> 100 µM

$$$$
>  <compound>
COc1ccc(/C(=N\NC(=S)NN)C(c2ccc(OC)cc2)C2C(=O)Oc3ccccc32)cc1 (stereo not given)

>  <experimental target>
EKVX NSCLC

>  <TGI>
> 100 µM

$$$$
>  <compound>
S=c1cc(-c2ccc3c(c2)OCO3)s[nH]1

>  <experimental target>
EKVX NSCLC

>  <TGI>
> 100 µM

$$$$

The compound listed as Cn1c2c(c3ccccc31)CCN(CCN1CCN(c3cccc(Cl)c3)CC1)C2=O shows TGI equal to > 100 µM

// TGI lookup, compound = C[C@]12CC[C@@H]3c4cc(I)c(O)cc4CC[C@H]3[C@@H]1CC[C@@H]2O , result: 15.6 µM

Kindly note the recorded TGI for Cn1c2ccccc2c(=O)c2c(O)cc3c(c21)C=CC1(CCCCC1)O3 , which is > 10 µM

Notebook: CCOC(=O)C#Cc1ccccc1 , TGI read as 10.9 µM

Sample C/C(=N\NC(=O)CC#N)c1c(O)cc(C)oc1=O ; TGI observed: > 100 µM

TGI measured on CSc1nnc(COc2ccc(Cl)cc2)o1 = > 100 µM

----------
- System: SF-295 CNS
- assay procedure: NCI tumour cell line growth inhibition, 48 h
endpoint label: TGI

Some solved entries appear below for comparison.
>  <compound>
O=[N+]([O-])c1ccc(-c2ccc(-c3csc(Nc4ccccc4)n3)o2)cc1

>  <experimental target>
SF-295 CNS

>  <endpoint label>
TGI

>  <reported measurement>
> 86.4 µM

$$$$
>  <compound>
CCCCN(CC)CC(C(C)=O)c1c(O)c2ccccc2oc1=O (stereo unspecified)

>  <experimental target>
SF-295 CNS

>  <endpoint label>
TGI

>  <reported measurement>
> 100 µM

$$$$
>  <compound>
N#Cc1nc(C2CCC2)oc1N

>  <experimental target>
SF-295 CNS

>  <endpoint label>
TGI

>  <reported measurement>
> 100 µM

$$$$
>  <compound>
CCOC(=O)C(NC(=O)c1nc[nH]c1[N+](=O)[O-])C(C)C (stereo unspecified)

>  <experimental target>
SF-295 CNS

>  <endpoint label>
TGI

>  <reported measurement>
> 100 µM

$$$$
>  <compound>
S=c1cc(-c2ccc3c(c2)OCO3)s[nH]1

>  <experimental target>
SF-295 CNS

>  <endpoint label>
TGI

>  <reported measurement>
> 100 µM

$$$$

Lab note: next compound to report on.
Value of measured TGI for the entry C[C@H]1SC(c2ccc(Cl)cc2Cl)N(NC(=O)c2ccncc2)C1=O (stereo partly specified) : > 100 µM

----------
- Tested on: SF-268 CNS
- assay procedure: NCI tumour cell line growth inhibition, 48 h
Quick reference for TGI among some molecules

// worked examples, TGI included
>  <molecule>
COc1ccc(-c2cc(-c3ccccc3)[nH]c(=S)c2C#N)cc1

>  <reported measurement>
> 100 µM

$$$$
>  <molecule>
c1ccc(N2N=C(c3ccco3)CC2c2ccco2)cc1 (stereo not given)

>  <reported measurement>
> 100 µM

$$$$
>  <molecule>
NC(=O)N/N=C1\CC2C3CC4C2C4C13 (stereo not given)

>  <reported measurement>
> 100 µM

$$$$
>  <molecule>
CC(=O)OCc1c(O)c2c(c(O)c1COC(C)=O)C(=O)C=CC2=O

>  <reported measurement>
30.8 µM

$$$$

Lab note: next molecule to report on.
The reported value for CC(=O)c1ccc(O)c(CN(C2CCCCC2)C2CCCCC2)c1O in terms of TGI is > 100 µM

----------
- Test system: NCI-H522 lung
- assay procedure: NCI tumour cell line growth inhibition, 48 h
Below: a set of entries, each annotated with reported log10 of TGI.
The base-10 logarithm of TGI, taken with TGI in µM, is what appears here.

>  <molecule>
CC(=O)c1ccc2c(c1)CC1(C2)Cc2ccccc2C1=O (stereo unspecified)

>  <log10 of TGI>
2.00

$$$$
>  <molecule>
Cc1ccc(C2=CC(=O)/C(=C\C(=O)c3ccc(Cl)cc3)O2)cc1

>  <log10 of TGI>
0.70

$$$$
>  <molecule>
COc1cc2c(c(O)c1OC)C(=O)C(Cc1ccc(O)cc1)CO2 (stereo unspecified)

>  <log10 of TGI>
1.18

$$$$
>  <molecule>
CN(C)CC1CCC(CN(C)C)C1=O (stereo unspecified)

>  <log10 of TGI>
-0.44

$$$$
>  <molecule>
C=C1C(=O)O[C@H]2[C@H]1CC/C(C=Nc1c(N)cc(C(F)(F)F)cc1Br)=C\CC[C@@]1(C)O[C@@H]21

>  <log10 of TGI>
0.47

$$$$
>  <molecule>
COCCOCCOC1=CC(=O)c2c(O)ccc(O)c2C1=O

>  <log10 of TGI>
0.47

$$$$

Entry COc1nc(C#CC(C)(C)C)nc(OC)n1 — recorded log10 of TGI = 1.69

The molecule listed as NS(=O)(=O)c1cccc(NC(=S)NC(=O)Nc2ccc(Cl)c(Cl)c2)c1 shows log10 of TGI equal to 1.46

# log10 of TGI (molecule: COc1ccc(C2c3cc4c(cc3OC(N3CCOCC3)C2C)OCO4)c(OC)c1OC (stereo unspecified) ) is 1.47
